- Test system: 317291-083-R-J1-PDC complex spheroids, viability
- EXPERIMENTAL PROTOCOL: Anticancer human tumor 317291-083-R-J1-PDC patient-derived soft tissue sarcoma cell line growth inhibition [GQUAD]
- MEASUREMENT PARAMETERS: second compound 1 µM; first compound 0.000999 µM; stronger effect = lower value
# maps each entry to its viability, T/C
All answers are understood in %, so give the number only.

As a guide, the following entries are already answered.
COMPOUND: CC[C@@]1(O)C(=O)OCc2c1cc1n(c2=O)Cc2cc3c(CN(C)C)c(O)ccc3nc2-1 + CN(C)c1ccc(Nc2c3ccc(NC(=O)CCN4CCCC4)cc3nc3cc(NC(=O)CCN4CCCC4)ccc23)cc1
viability, T/C / %: 49

COMPOUND: CCc1c2c(nc3ccc(O)cc13)-c1cc3c(c(=O)n1C2)COC(=O)[C@]3(O)CC + Cc1cnc(CNC(=O)c2c(=O)c3ccc(N4CCCN(C)CC4)nc3n3c2sc2ccccc23)cn1
viability, T/C / %: 21.9

Next, consider the following compound.
q: Given the compound Cc1[nH]c2ccccc2c1CCNCc1ccc(/C=C/C(=O)NO)cc1 + Cc1cnc(CNC(=O)c2c(=O)c3ccc(N4CCCN(C)CC4)nc3n3c2sc2ccccc23)cn1 , what is its reported viability, T/C?
a: 34.4

* * *

In this section we review reported viability, T/C values for a set of molecules.
- Test system: 317291-083-R-J1-PDC complex spheroids, viability
- EXPERIMENTAL PROTOCOL: Anticancer human tumor 317291-083-R-J1-PDC cell line growth inhibition [GQUAD];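 note: spheroids exposed to compounds for one week before readout; percent viability relative to DMSO vehicle wells taken as 100%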
- MEASUREMENT PARAMETERS: second compound 0.0316 µM; first compound 10 µM; stronger effect = lower value
Report the value in % with no unit label.

MOLECULE: COc1ccc([C@@H](O)c2cc(-c3ncnc4cc(N5CCOCC5)ccc34)c(F)cc2Cl)nn1 + Cc1[nH]c2ccc(F)cc2c1-c1nc2c3cccnc3c3ncccc3c2[nH]1
MEASUREMENT UNITS: %
viability, T/C: 46.3
//
MOLECULE: CC(C)n1c(=O)n(C)c2cnc3cc(F)c(-c4ccc(OCCCN5CCCCC5)nc4)cc3c21 + CN(C)c1ccc(Nc2c3ccc(NC(=O)CCN4CCCC4)cc3nc3cc(NC(=O)CCN4CCCC4)ccc23)cc1
MEASUREMENT UNITS: %
viability, T/C: 34.3
//
MOLECULE: C=CC(=O)N1CCN(c2nc(=O)n(-c3c(C)ccnc3C(C)C)c3nc(-c4c(O)cccc4F)c(F)cc23)C(C)C1 (stereo not given) + CN(C)c1ccc(Nc2c3ccc(NC(=O)CCN4CCCC4)cc3nc3cc(NC(=O)CCN4CCCC4)ccc23)cc1
MEASUREMENT UNITS: %
viability, T/C: 65.2
//
MOLECULE: CC(C)(O)C1CCC(Nc2ccc3ncc(-c4cccc(C(F)(F)F)c4)n3n2)CC1 (stereo not given) + Cc1[nH]c2ccc(F)cc2c1-c1nc2c3cccnc3c3ncccc3c2[nH]1
MEASUREMENT UNITS: %
viability, T/C: 0.37

Please turn your attention to the following entry.
q: Record request: viability, T/C value, item CC1COCCN1c1cc(-c2ccnn2C)c2ccnc(-c3ccn[nH]3)c2n1 (stereo not given) + Cc1cnc(CNC(=O)c2c(=O)c3ccc(N4CCCN(C)CC4)nc3n3c2sc2ccccc23)cn1
a: 12.7
